Recorded BHET released by entry
Experiment: BHET released, HPLC; higher = more BHET released; extreme values may be limits of the assay
Conditions: PET substrate: cryPow; 60 °C; pH 6.5; 24 h
Report the figure in mM without appending any unit label.

Known results for sequences:
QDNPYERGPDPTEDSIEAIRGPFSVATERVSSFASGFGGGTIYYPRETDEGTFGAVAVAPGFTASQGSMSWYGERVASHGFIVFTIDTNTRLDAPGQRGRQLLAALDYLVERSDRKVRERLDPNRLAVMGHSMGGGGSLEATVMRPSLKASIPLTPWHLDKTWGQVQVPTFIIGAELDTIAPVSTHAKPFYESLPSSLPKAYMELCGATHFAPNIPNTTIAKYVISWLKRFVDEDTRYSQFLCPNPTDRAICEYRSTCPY [Cut190*SS] : 0.00767
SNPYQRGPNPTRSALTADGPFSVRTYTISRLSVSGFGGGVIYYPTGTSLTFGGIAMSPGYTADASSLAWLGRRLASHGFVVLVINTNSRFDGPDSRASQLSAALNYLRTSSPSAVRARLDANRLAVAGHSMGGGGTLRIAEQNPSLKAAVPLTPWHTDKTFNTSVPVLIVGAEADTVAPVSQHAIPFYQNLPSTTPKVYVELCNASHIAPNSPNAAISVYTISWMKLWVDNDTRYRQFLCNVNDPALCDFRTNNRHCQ [LCC-ICCG RIP] : 0

Now consider the entry below.
Quick check: BHET released of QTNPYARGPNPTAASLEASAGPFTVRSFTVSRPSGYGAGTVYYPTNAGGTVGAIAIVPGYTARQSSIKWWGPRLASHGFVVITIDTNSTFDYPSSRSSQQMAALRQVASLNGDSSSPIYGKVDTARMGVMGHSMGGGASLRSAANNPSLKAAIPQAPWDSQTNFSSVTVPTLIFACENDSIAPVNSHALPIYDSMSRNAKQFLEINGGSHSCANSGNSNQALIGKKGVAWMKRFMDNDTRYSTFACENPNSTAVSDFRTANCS [DuraPETase] ?
0
